Origin of the recorded values: PubChem BioAssay (NCATS)

- Test name: Stat Signaling Pathway (AID 446);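 further: ME-180 cervical cancer cells given 40 pM IL-6 alongside compound; SIE-controlled beta-lactamase reporter measured as 460/530 nm FRET emission ratio; on the % scale 0 is the no-effect control and ±100 the full control effect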
- Stated conditions: ME-180 (cervical carcinoma) SIE beta-lactamase reporter, IL-6 stimulated, 5 h; at 7.69 µM (top of the series) unless noted
Records with an inconclusive call do not appear. The source made the active and inactive calls. The call rests on the fitted dose curve; in most records, active means well fitted curve in either direction with a large enough effect (not every such curve was filed as active); inconclusive means small, poorly fitted or top-dose-only effect, or another doubt; inactive means flat fitted curve, though single readings scatter.
The entries below are paired with their reported activity, negative = inhibition.

Below, each entry is followed by its recorded activity, negative = inhibition result.
N#CCCSC(=S)[C@H]1CCCC1=N : -9.66% (inactive)
C[C@H]1CC(C)(C)C[C@@](OCCN2CCCCC2)(c2ccccc2)C1 : 7.87% (inactive)
c1cncc(CNc2ncn[nH]2)c1 : -1.59% (inactive)
OC[C@@H]1O[C@@H](n2cnc3c(NC4CCCC4)ncnc32)[C@@H](O)[C@H]1O : 12.2% [at 38 µM] (inactive)
COc1ccc2c(c1)Cc1cc(N=[N+]([O-])c3ccc4c(c3)Cc3cc(OC)ccc3-4)ccc1-2 : -1.13% (inactive)
O=c1cc(CF)[nH]c(=S)[nH]1 : 13.4% (inactive)

Let us move to another entry and its activity, negative = inhibition.
Would you mind telling me what activity, negative = inhibition value was observed for `CC(C)=CCNc1ncnc2nc[nH]c12` ?
5.75% (inactive)

###

- Test name: Cell Viability - LYMP2-018 (AID 985);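 further: compound exposure lasted 24 hr at 37 °C; nearly all actives have a fitted effect of over 50% in size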
- Stated conditions: LYMP2-018 lymphoblastoid cells, viability (qHTS); series mostly up to 92.2 µM
Records with an inconclusive call do not appear. Calls of active or inactive are those of the source. Calls follow the shape of the dose curve; as a rule, active = well fitted cell-killing curve with a large enough effect; inconclusive = small, poorly fitted or top-dose-only effect; inactive = flat fitted curve, though single readings scatter.
Thanks in advance; please answer with one of these: active, inactive

Solved entries (count: 5):
O=[N+]([O-])c1ccccc1Nc1ccccc1 : inactive
CCCCOC(=O)COc1ccc(Cl)cc1Cl : inactive
CCCCCCc1ccc(-c2ccc(C#N)cc2)cc1 : inactive
CCCCCCCCC1CO1 (stereo not given) : inactive
COc1cc(-c2ccc(N=C=O)c(OC)c2)ccc1N=C=O : inactive

# fetch the recorded call for `Brc1cc(Oc2cc(Br)c(Br)c(Br)c2Br)c(Br)c(Br)c1Br` here
inactive

# fetch the recorded call for `Nc1cnn([C@@H]2O[C@H](CO)[C@@H](O)[C@H]2O)c(=O)n1` here
inactive

# fetch the recorded call for CCCCC(CC)COC(=O)COc1ccc(Cl)cc1Cl (stereo not given) here
inactive

# fetch the recorded call for `Cc1ccc(C(=O)O)cc1[N+](=O)[O-]` here
inactive

# fetch the recorded call for `c1ccc(COCc2ccccc2)cc1` here
inactive

# fetch the recorded call for `C=Cc1cccc(C)c1` here
inactive

# fetch the recorded call for `O=C1c2ccccc2C(=O)C1(O)O` here
inactive

# fetch the recorded call for `CN(C)c1ccc(C(=N)c2ccc(N(C)C)cc2)cc1` here
active

# fetch the recorded call for `CC1=C(/C=C/C(C)=C/C=C/C(C)=C/C=O)C(C)(C)CCC1` here
active

# fetch the recorded call for `CCCCCCCC/C=C\CCCCCCCC(=O)N(CCO)CCO` here
inactive

# fetch the recorded call for `Cc1ccc(N)cc1[N+](=O)[O-]` here
inactive

# fetch the recorded call for `Oc1ccc2c(c1)OCO2` here
inactive

# fetch the recorded call for `CCOc1ccc2nc(N)sc2c1` here
inactive

# fetch the recorded call for `Brc1cc(Br)c(Oc2cc(Br)c(Br)cc2Br)cc1Br` here
inactive

# fetch the recorded call for `Oc1cc(Cl)cc(Cl)c1Cl` here
inactive

# fetch the recorded call for `C1CCCNCC1` here
inactive

# fetch the recorded call for `CC(CCC(=O)O)(c1ccc(O)cc1)c1ccc(O)cc1` here
inactive

# fetch the recorded call for `O=C(O)c1cc(N=Nc2ccc([N+](=O)[O-])cc2)ccc1O` here
inactive

# fetch the recorded call for `O=C1OC(=O)c2ccccc21` here
inactive

# fetch the recorded call for `O=C(Cl)c1ccc([N+](=O)[O-])cc1` here
inactive

# fetch the recorded call for `c1ccc2ncccc2c1` here
inactive
